Where do these numbers come from? They come from patent US20210308173A1.

Test: Co-solvent addition: AOL solubility
Format: physicochemical
Conditions: aqueous SBE-β-CD solution, aqueous with cosolvent or surfactant or cyclodextrin, thermodynamic from solid, SBE-β-CD 20% (w/w), Tween 80 10% (w/w)
Procedure: SBE-β-CD compatible excipients, namely polyethylene glycol and polysorbate (Tween), were evaluated for their AOL aqueous solubilizing power. Screening was carried out in same conditions as that of solubilization screening by cyclodextrins (see Example 3). Briefly, 20% (w/w) solutions of each excipient were prepared. An excess of AOL was added and the solutions were analyzed by HPLC after 4 hours of stirring. […]
property: solubility at 4 h (µg/mL)

compound_smiles=COc1ccc(-c2cc(=S)ss2)cc1 readout_value=587

----------
Test: Solubility testing in buffer containing media
Format: physicochemical
Conditions: buffered aqueous cyclodextrin solution, pH 6.5, aqueous with cosolvent or surfactant or cyclodextrin, 40% SBE-β-cyclodextrin, pH 6.5 phosphate buffer; read-out: highest solubility value
property: solubility (µg/mL)

compound_smiles=COc1ccc(-c2cc(=S)ss2)cc1 property=solubility unit_symbol=µg/mL readout_value=1210

----------
Assay: Cyclodextrin-AOL solubility diagrams
Format: physicochemical
Conditions: aqueous cyclodextrin solution, 25 °C, aqueous with cosolvent or surfactant or cyclodextrin, thermodynamic from solid, HP-β-CD 2.5% (w/w), 25° C.; read-out: AOL solubility
Description: A cyclodextrin-AOL solubility diagram would reveal the profile of the solubility curve of the AOL depending on the concentration of the cyclodextrin. The principle of this method is to add an excess of AOL to cyclodextrin solutions of increasing concentration, then to measure the amount of solubilized AOL. […] The solubility of AOL in each test solution was quantified by HPLC as detailed in Example 2.
property: solubility at 4 h (µg/mL)

compound_smiles=COc1ccc(-c2cc(=S)ss2)cc1 property="solubility at 4 h" readout_value=19.5

----------
Experiment: Co-solvent addition: AOL solubility
Type: physicochemical
Conditions: aqueous SBE-β-CD solution, aqueous with cosolvent or surfactant or cyclodextrin, thermodynamic from solid, SBE-β-CD 20% (w/w), Cremophor 10% (w/w)
property: solubility at 4 h (µg/mL)

compound_smiles=COc1ccc(-c2cc(=S)ss2)cc1 readout_value=644

----------
Test: Cyclodextrin-AOL solubility diagrams
Assay type: physicochemical
Conditions: aqueous HP-β-CD solution, 4 °C, aqueous with cosolvent or surfactant or cyclodextrin, thermodynamic from solid, HP-β-CD 30% (w/w), 20° C. followed by 48 hours at 4° C.
property: solubility

compound_smiles=COc1ccc(-c2cc(=S)ss2)cc1 readout_value="187 µg/mL"

----------
Assay: Co-solvent addition: AOL solubility
Type: physicochemical
Conditions: aqueous HP-β-CD solution, aqueous with cosolvent or surfactant or cyclodextrin, thermodynamic from solid, HP-β-CD 20% (w/w), Tween 80 10% (w/w)
property: solubility at 4 h

compound_smiles=COc1ccc(-c2cc(=S)ss2)cc1 readout_value="396 µg/mL"

----------
Assay: Cyclodextrin-AOL solubility diagrams
Format: physicochemical
Settings: aqueous cyclodextrin solution, 30 °C, aqueous with cosolvent or surfactant or cyclodextrin, thermodynamic from solid, HP-β-CD 20% (w/w), 30° C.; read-out: AOL solubility
property: solubility at 4 h (µg/mL)

compound_smiles=COc1ccc(-c2cc(=S)ss2)cc1 unit_symbol=µg/mL readout_value=255

----------
Experiment: Cyclodextrin-AOL solubility diagrams
Assay type: physicochemical
Conditions: aqueous SBE-β-CD solution, 25 °C, aqueous with cosolvent or surfactant or cyclodextrin, thermodynamic from solid, SBE-β-CD 2.5% (w/w), 25° C.; read-out: AOL solubility
property: solubility at 4 h (µg/mL)

compound_smiles=COc1ccc(-c2cc(=S)ss2)cc1 readout_value=35.8
